Each entry below carries its reported Kb.
assay: Competitive binding affinity to Fe3+ ion assessed as metal chelating activity by measuring binding constant by calcein probe based fluorescence displacement assay

{"columns": ["molecule", "result"],
 "data": [
  ["Cc1c(O)c(=O)ccn1-c1ccc(OCCOCCN(C)C)cc1", "1.79 10^22/M"]
]}

Prompt: Requested field: Kb. Item: Cc1c(O)c(=O)ccn1-c1ccc(N2CCN(C)CC2)cc1
Completion: 1.3 10^22/M

Prompt: Report Kb for Cc1c(O)c(=O)ccn1-c1ccc(N2CCOCC2)cc1 please.
Completion: 1.33 10^22/M

Prompt: What value of Kb has been recorded for this entry: Cc1c(O)c(=O)ccn1-c1ccc(OC2CCN(C)C2)cc1 (stereo not given)
Completion: 1.35 10^22/M

Prompt: Give its Kb value. Item: Cc1c(O)c(=O)ccn1-c1ccc(OCCN(C)C)cc1
Completion: 1.37 10^22/M

Prompt: Report Kb for Cc1c(O)c(=O)ccn1CCc1ccccc1 please.
Completion: 1 10^22/M

Prompt: Could you tell me which Kb is on file for Cc1c(O)c(=O)ccn1CCN(C)C ?
Completion: 1.21 10^22/M

Prompt: Dear colleague, I am looking for the recorded Kb of the following molecule: Cc1c(O)c(=O)ccn1-c1ccc(N(C)C)cc1
Completion: 0.98 10^22/M

Prompt: # query: Kb of entry CCc1c(O)c(=O)ccn1CCc1ccccc1
Completion: 1.69 10^22/M

Prompt: Query: Kb; subject: Cc1c(O)c(=O)ccn1-c1ccc(OCCN2CCCCC2)cc1
Completion: 2.23 10^22/M

Prompt: Could you tell me which Kb is on file for Cc1c(O)c(=O)ccn1CC1CCCCC1 ?
Completion: 1.32 10^22/M

Prompt: May I ask what Kb has been recorded for Cc1c(O)c(=O)ccn1-c1ccc(NCCN(C)C)cc1 ?
Completion: 1.4 10^22/M

Prompt: I have this molecule here, Cc1c(O)c(=O)ccn1-c1ccc(OCC2CCN(C)CC2)cc1 , and I need its recorded Kb.
Completion: 1.12 10^22/M
